Molecular target: plasma kallikrein (Homo sapiens)
Construct: from tissue
Sequence (P03952 391-638 limits assumed): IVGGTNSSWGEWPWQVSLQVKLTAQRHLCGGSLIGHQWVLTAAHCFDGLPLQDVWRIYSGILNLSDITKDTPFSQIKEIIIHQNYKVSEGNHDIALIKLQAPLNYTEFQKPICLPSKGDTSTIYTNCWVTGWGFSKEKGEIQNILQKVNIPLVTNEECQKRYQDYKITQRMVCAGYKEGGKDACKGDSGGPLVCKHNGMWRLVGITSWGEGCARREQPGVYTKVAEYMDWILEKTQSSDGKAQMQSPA
Sequence (P03952 20-390 partner limits assumed): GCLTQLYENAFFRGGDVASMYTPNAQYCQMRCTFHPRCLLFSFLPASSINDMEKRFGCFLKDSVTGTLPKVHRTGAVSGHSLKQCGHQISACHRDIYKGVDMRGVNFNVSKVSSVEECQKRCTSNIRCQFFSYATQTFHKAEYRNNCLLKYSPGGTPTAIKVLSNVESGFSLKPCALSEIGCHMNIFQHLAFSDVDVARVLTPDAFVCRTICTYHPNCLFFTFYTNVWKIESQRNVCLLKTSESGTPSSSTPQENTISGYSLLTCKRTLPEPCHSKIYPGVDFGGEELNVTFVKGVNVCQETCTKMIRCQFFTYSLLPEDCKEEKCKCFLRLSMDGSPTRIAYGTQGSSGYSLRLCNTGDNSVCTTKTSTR
Test: Neat human plasma assay, FXIIa contact pathway-activated, PFR-AMC substrate
Assay type: biochemical
Details: citrated human plasma 78% final, 10 nM human FXIIa, 100 μM PFR-AMC; read-out: Human Plasma Assay: IC90
Description: To analyze inhibition of plasma kallikrein in an ex vivo setting, the potency of compounds was measure in contact pathway-activated plasma assays. In a fluorogenic peptide substrate assay, test compounds dissolved in DMSO were added to sodium citrate collected human or rat plasma in a 96-well microplate. […] Fluorescence was immediately monitored by excitation/emission wavelengths of 360 nm/480 nm respectively over a period of 5 minutes in a microplate reader. […]
Entries and their measured IC90 follow.

compound | measurement.kind | experimental.value
CCOC(=O)CN1CCN(c2cc(C3CC3)cn3cc(CNc4ccnc(NC(=O)[C@H]5C[C@@H]5c5cccc(Cl)c5)c4)nc23)CC1 [Example 600] | IC90 | > 48000 nM

Name the reported IC90 value associated with the compound Cc1ccnc([C@H]2C[C@@H]2C(=O)Nc2cc(NC(C)c3cn4cc(Cl)cc(N5CC(=O)N(C)C5=O)c4n3)nc(C)n2)n1 (stereo partly drawn) [Example 356]
1500 to 10000 nM

Name the reported IC90 value associated with the compound CN1C(=O)CN(c2cc(C3CC3)cn3cc([C@H]4C[C@H](O)CN4c4cc(NC(=O)[C@H]5C[C@@H]5c5cc(Cl)ccn5)ncn4)nc23)C1=O [Example 478]
400 to 1500 nM

Name the reported IC90 value associated with the compound O=C(Nc1cc(NCc2cn3cc(C4CC4)cc(N4CCNC4=O)c3n2)ncn1)[C@H]1C[C@@H]1c1cccc(Cl)c1 [Example 309]
1500 to 10000 nM

Name the reported IC90 value associated with the compound Cc1ccnc([C@H]2C[C@@H]2C(=O)Nc2cc(N(C)Cc3cn4cc(C5CC5)cc(N5CC(=O)NC5=O)c4n3)ncn2)n1 [Example 375]
< 400 nM

Name the reported IC90 value associated with the compound O=C(Nc1cc(NCc2cn3cc(C4CC4)cc(-c4ccc[nH]c4=O)c3n2)ncn1)[C@H]1C[C@@H]1c1cccc(Cl)c1 [Example 305]
1500 to 10000 nM

Name the reported IC90 value associated with the compound O=C(Nc1cc(N2C[C@@H](O)C[C@@H]2c2cn3cc(C4CC4)cc(N4CCOC4=O)c3n2)ncn1)[C@H]1C[C@@H]1c1cccc(Cl)c1 [Example 479]
1500 to 10000 nM

Name the reported IC90 value associated with the compound Cc1cc(NCc2cn3cc(C4CC4)ccc3n2)cc(NC(=O)[C@H]2C[C@@H]2c2cccc(Cl)c2)n1 [Example 338]
1500 to 10000 nM

Name the reported IC90 value associated with the compound Cc1cc(NCc2cn3cc(C4CC4)cc(N4CCN(C)CC4)c3n2)cc(NC(=O)[C@H]2C[C@@H]2c2cccc(Cl)c2)n1 [Example 605]
400 to 1500 nM

Name the reported IC90 value associated with the compound O=C(Nc1cc(NCc2cn3cc(C4CC4)cc(C4(O)COC4)c3n2)ccn1)[C@H]1C[C@@H]1c1cccc(Cl)c1 (racemic) [Example I-242]
1500 to 10000 nM

Name the reported IC90 value associated with the compound Cc1ccnc([C@H]2C[C@@H]2C(=O)Nc2ncc(F)c(N(C)Cc3cn4cc(C5CC5)cc(N5CC(=O)NC5=O)c4n3)n2)n1 (racemic) [Example 516]
< 400 nM

Name the reported IC90 value associated with the compound COCc1nc(NC(=O)[C@H]2C[C@@H]2c2nccc(C)n2)cc(N[C@H](C)c2cn3cc(C4CC4)cc(N4CC(=O)N(C)C4=O)c3n2)n1 [Example 355]
< 400 nM

Name the reported IC90 value associated with the compound Cc1ccnc([C@H]2C[C@@H]2C(=O)Nc2cc(NCc3cn4cc(C5CC5)cc(N5CC(=O)N(COP(=O)(O)O)C5=O)c4n3)ncn2)n1 [Example 466]
1500 to 10000 nM

Name the reported IC90 value associated with the compound CN1C(=O)CCN(c2cc(C3CC3)cn3cc(CNc4cc(NC(=O)[C@H]5C[C@@H]5c5cccc(Cl)c5)ncn4)nc23)C1=O [Example I-194]
1500 to 10000 nM

Name the reported IC90 value associated with the compound Cc1ccnc([C@H]2C[C@@H]2C(=O)Nc2nc(NCc3cn4cc(C5CC5)cc(N5CC(=O)N(C)C5=O)c4n3)cc(C3CC3)n2)n1 (racemic) [Example 539]
1500 to 10000 nM

Name the reported IC90 value associated with the compound Cc1ccnc([C@H]2C[C@@H]2C(=O)Nc2cc(NCc3cn4cc(C5CC5)cc(N5CC(=O)N(C)C5=O)c4n3)ccn2)n1 (racemic) [Example I-208]
< 400 nM

Name the reported IC90 value associated with the compound Cc1ccnc([C@H]2C[C@@H]2C(=O)Nc2cc(NC(C)c3cn4cc(C5CC5)cc(N5CC(=O)N(C)C5=O)c4n3)ncn2)n1 (relative stereo) [Example 449]
1500 to 10000 nM

Name the reported IC90 value associated with the compound O=C(Nc1cc(NCc2cn3cc(C4CC4)cc(N4CCCC4=O)c3n2)ncn1)[C@H]1C[C@@H]1c1cccc(Cl)c1 [Example 144]
400 to 1500 nM

Name the reported IC90 value associated with the compound CC(=O)c1cc(C2CC2)cn2cc(CNc3ccnc(NC(=O)[C@H]4C[C@@H]4c4cccc(Cl)c4)c3)nc12 [Example I-237]
1500 to 10000 nM

Name the reported IC90 value associated with the compound Cc1ccnc([C@H]2C[C@@H]2C(=O)Nc2cc(NCc3cn4cc(C5CC5)cc(N5CC(=O)N(C)C5=O)c4n3)nc(C3(F)COC3)n2)n1 (racemic) [Example 114]
400 to 1500 nM

Name the reported IC90 value associated with the compound CCN1C(=O)CN(c2cc(C3CC3)cn3cc(CNc4cc(NC(=O)[C@H]5C[C@@H]5c5nccc(C)n5)ncn4)nc23)C1=O [Example 385]
< 400 nM

Name the reported IC90 value associated with the compound Cc1ccnc([C@H]2C[C@@H]2C(=O)Nc2cc(N3C[C@@H](O)C[C@@H]3c3cn4cc(C5CC5)cc(N5CCOC5=O)c4n3)ncn2)n1 (relative stereo) [Example 471]
400 to 1500 nM

Name the reported IC90 value associated with the compound Cc1ccnc([C@H]2C[C@@H]2C(=O)Nc2cc(NC(C)c3cn4cc(C5CC5)cc(N5CC(=O)N(C)C5=O)c4n3)nc(C)n2)n1 (stereo partly drawn) [Example 454]
400 to 1500 nM

Name the reported IC90 value associated with the compound CC1(C)CN(c2cc(C3CC3)cn3cc(CNc4cc(NC(=O)[C@H]5C[C@@H]5c5cccc(Cl)c5)ncn4)nc23)C(=O)O1 [Example I-199]
1500 to 10000 nM

Reference source: patent US20240228488A1
